assay: metabolic microsomal stability, rat liver microsomes; type: in vitro ADME; conditions: pH 7.4, 0.5 mg/mL protein, read-out: rat microsomal stability t1/2
Experimental Readout: half-life at 3 μM (min)
Answers are plain numbers, in min.

Task: What value of half-life at 3 μM has been recorded for this entry: CC(C)C1NC(=O)Cc2ccc(Cl)cc2Nc2ncnc3cc(OCCF)c(cc23)OCCCNC1=O (stereo not shown) [Compound (Ia)]
Output: 36.5

----------
molecular target: NCI-H3255 tumor homogenates (activated EGFR) (Homo sapiens, UniProt P00533, L858R); assay: binding competition and binding kinetic on tumor homogenates; conditions: read-out: binding affinity
Sequence (P00533 25-1210 L858R): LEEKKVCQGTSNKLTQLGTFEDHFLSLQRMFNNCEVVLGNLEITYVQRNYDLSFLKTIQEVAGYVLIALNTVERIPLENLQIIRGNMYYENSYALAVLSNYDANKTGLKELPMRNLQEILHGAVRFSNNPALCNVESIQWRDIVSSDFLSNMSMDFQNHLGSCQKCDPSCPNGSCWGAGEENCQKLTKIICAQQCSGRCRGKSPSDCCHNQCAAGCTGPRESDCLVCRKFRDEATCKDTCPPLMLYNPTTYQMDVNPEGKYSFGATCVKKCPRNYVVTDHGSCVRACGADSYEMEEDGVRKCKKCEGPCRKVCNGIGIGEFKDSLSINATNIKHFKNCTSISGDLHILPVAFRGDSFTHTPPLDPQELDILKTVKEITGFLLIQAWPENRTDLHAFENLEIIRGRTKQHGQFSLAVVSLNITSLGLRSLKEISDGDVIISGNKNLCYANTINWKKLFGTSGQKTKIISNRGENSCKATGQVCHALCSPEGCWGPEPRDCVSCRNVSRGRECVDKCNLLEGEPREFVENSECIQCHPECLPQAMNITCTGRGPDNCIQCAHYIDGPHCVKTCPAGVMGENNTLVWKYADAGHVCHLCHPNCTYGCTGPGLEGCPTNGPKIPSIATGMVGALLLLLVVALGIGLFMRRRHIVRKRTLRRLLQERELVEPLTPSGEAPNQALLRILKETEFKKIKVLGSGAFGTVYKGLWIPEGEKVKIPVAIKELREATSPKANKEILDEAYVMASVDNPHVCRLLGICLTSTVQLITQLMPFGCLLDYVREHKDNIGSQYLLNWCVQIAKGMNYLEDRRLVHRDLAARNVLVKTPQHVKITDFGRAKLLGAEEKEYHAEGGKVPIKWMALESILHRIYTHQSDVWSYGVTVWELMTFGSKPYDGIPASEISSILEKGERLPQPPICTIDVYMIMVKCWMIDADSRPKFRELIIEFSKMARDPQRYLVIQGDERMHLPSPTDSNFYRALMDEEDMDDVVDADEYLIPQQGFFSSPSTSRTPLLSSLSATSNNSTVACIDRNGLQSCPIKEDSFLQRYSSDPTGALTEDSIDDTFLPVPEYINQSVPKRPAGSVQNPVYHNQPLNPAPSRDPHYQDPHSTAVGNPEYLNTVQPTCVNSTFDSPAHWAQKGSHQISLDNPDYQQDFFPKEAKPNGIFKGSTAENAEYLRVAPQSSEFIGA
Experimental Readout: pKd
Numbers only, as −log10 of the molar value.

Task: Any idea what its pKd is? The molecule is CC(C)C1NC(=O)Cc2ccc(Cl)cc2Nc2ncnc3cc(OCC[18F])c(cc23)OCCCNC1=O (stereo not shown) [Compound (I)]
Output: 8.55

Origin of values: patent US10716869B2
